Kindly supply the reported Plant response rating, Foxtail, Giant values for the records listed here.
# System: giant foxtail
# test name: Test C pre-/postemergence herbicide test
# Format: in vivo, Setaria faberi
# protocol conditions: 250 g ai/ha; scale 0-100; preemergence
Keep it simple and answer with nothing but the number.

// query Could you tell me which Plant response rating, Foxtail, Giant is on file for CCn1nc(C2(C)CC2)cc1C(=O)Nc1cc(C(=O)N2CC=CC2)ccc1F ?
// result 95

// query Similarly, CCNC(=S)c1cccc(NC(=O)c2nn(C(C)(C)C)nc2C)c1 ?
// result 100

// query Similarly, CCn1nc(C(C)(C)C)cc1C(=O)Nc1ccc(OC)c(OC)c1 ?
// result 70

// query Similarly, CCc1nn(C(C)C)nc1C(=O)Nc1cccc(C(=O)N(C)CC)c1 ?
// result 90

// query Similarly, CCc1nn(C(C)C)nc1C(=O)Nc1cccc(C(=O)N2CCCCC2)c1 ?
// result 95

// query Similarly, CCN(CC)C(=O)c1cccc(NC(=O)c2cc(C(C)(C)C)nn2C)n1 ?
// result 20
